- assay: Selectivity ratio of Ki for uPA to Ki for human recombinant factor 9a
API: label(entry) gives Y if the entry's Ratio Ki is strictly smaller than 50; on equality or larger values it gives N.

Illustrative cases are given below, each with its answer.
# compound, class
records = [
    ("N=C(N)c1cc2c(OC(COC(=O)Nc3ccccc3CN3CCNCC3)c3ccccc3)cccc2s1 (centres undefined)", "N"),
    ("N=C(N)c1cc2c(OC(COC(=O)Nc3ccccc3)c3ccccc3)cc(F)cc2s1 (centres undefined)", "N"),
    ("N=C(N)c1cc2c(OC(COC(=O)Nc3cccc(F)c3)c3ccccc3)cccc2s1 (centres undefined)", "Y"),
]

Determine whether this compound shows Ratio Ki lower than 50 (ties excluded): Cc1noc(C)c1NC(=O)OCC(Oc1cccc2sc(C(=N)N)cc12)c1ccccc1 (centres undefined)
Y

Quick check: Ratio Ki of COc1ccc(NC(=O)OCC(Oc2cccc3sc(C(=N)N)cc23)c2ccccc2)cc1 (centres undefined) under 50?
Y

Lab log: compare recorded Ratio Ki with 50; is it strictly lower for N=C(N)c1cc2c(OC(COC(=O)Nc3ccccc3CN)c3ccccc3)cc(F)cc2s1 (centres undefined) ?
N

I wonder whether N=C(N)c1cc2c(OC(COC(=O)Nc3ccc(F)cc3)c3ccccc3)cccc2s1 (centres undefined) has Ratio Ki below 50. Can you tell?
N

---

- testTarget: Coagulation factor X (Homo sapiens)
- Sequence (P00742 41-179 limits assumed): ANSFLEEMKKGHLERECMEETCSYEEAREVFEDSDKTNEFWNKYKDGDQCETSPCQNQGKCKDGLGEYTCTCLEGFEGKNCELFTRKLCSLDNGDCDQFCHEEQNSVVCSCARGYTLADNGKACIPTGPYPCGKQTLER
- Sequence (P00742 235-488 limits assumed): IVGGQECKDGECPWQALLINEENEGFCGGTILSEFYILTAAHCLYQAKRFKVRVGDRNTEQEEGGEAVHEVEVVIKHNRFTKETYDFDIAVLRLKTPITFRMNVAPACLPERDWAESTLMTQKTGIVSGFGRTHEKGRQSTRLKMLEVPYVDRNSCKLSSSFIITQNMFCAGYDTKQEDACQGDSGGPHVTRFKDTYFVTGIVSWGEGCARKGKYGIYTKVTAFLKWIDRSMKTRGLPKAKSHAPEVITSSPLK
pKi: −log10 of the molar value.
Hi, to clarify the labels: MET covers pKi from 6 upward, NOT MET covers anything below 6.

# compound, class
records = [
    ("Cc1noc(C)c1NC(=O)OCC(Oc1cccc2sc(C(=N)N)cc12)c1ccccc1 (stereo not given)", "NOT MET"),
]

Quick check: does N=C(N)c1cc2c(OC(COC(=O)Nc3ccccc3F)c3ccccc3)cccc2s1 (stereo not given) have pKi greater than or equal to 6?
MET

Check this compound for pKi at or above 6: N=C(N)c1cc2c(OC(CO)c3ccccc3)cccc2s1 (stereo not given)
NOT MET

Answer whether pKi of CN1CCN(Cc2ccc(NC(=O)OCC(Oc3cccc4sc(C(=N)N)cc34)c3ccccc3)cc2)CC1 (stereo not given) is greater than or equal to 6.
NOT MET

// inclusive: pKi at least 6? input: N=C(N)c1cc2c(OC(COC(=O)Nc3ccc(F)cc3)c3ccccc3)cccc2s1 (stereo not given)
NOT MET

Item N=C(N)c1cc2c(OC(CNC(=O)Oc3ccccc3)c3ccccc3)cccc2s1 (stereo not given) with pKi of 6 or above?
MET

Is pKi at least 6? Consider COc1ccccc1NC(=O)C(Oc1cccc2sc(C(=N)N)cc12)c1ccccc1 (stereo not given)
MET

Item CCOC(=O)c1nccn1-c1ccc(NC(=O)C(Oc2cccc3sc(C(=N)N)cc23)c2ccccc2)cc1 (stereo not given) with pKi of 6 or above?
MET

Quick check: does CN(C)C(=O)c1ccc(NC(=O)C(Oc2cccc3sc(C(=N)N)cc23)c2ccccc2)cc1 (stereo not given) have pKi greater than or equal to 6?
MET

Assess whether reported pKi for COc1ccc(NC(=O)OC[C@@H](Oc2cccc3sc(C(=N)N)cc23)c2ccccc2)cc1 sits at 6 or higher.
NOT MET

---

Recorded pKi by entry
- testTarget: Coagulation factor IX (Homo sapiens, UniProt P00740)
- Sequence (P00740 47-191 limits assumed): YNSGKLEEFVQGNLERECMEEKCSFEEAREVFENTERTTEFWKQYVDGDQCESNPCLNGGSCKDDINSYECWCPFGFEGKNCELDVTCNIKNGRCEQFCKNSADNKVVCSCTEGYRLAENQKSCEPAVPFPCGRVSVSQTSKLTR
- Sequence (P00740 227-461 limits assumed): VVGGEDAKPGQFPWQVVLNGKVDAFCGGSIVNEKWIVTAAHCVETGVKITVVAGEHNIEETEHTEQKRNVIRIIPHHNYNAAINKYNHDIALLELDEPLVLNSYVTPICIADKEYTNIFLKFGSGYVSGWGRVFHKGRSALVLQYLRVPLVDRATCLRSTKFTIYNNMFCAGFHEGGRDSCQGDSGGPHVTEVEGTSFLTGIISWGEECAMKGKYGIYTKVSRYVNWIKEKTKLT
- assay: Inhibition of human recombinant factor 9a by amidolytic assay
Remember, pKi is on a log scale: it is -log10 of the molar concentration.

Worked cases, answers included:
# compound, testTarget, pKi
records = [
    ("CNCc1ccccc1NC(=O)OCC(Oc1cccc2sc(C(=N)N)cc12)c1ccccc1 (stereo not given)", "Coagulation factor IX (Homo sapiens, UniProt P00740)", 8.52),
    ("N=C(N)c1cc2c(OC(COC(=O)Nc3ccccc3)c3ccccc3)cc(F)cc2s1 (stereo not given)", "Coagulation factor IX (Homo sapiens, UniProt P00740)", 7.81),
    ("COC(=O)C(C)Oc1cccc2sc(C(=N)N)cc12 (stereo not given)", "Coagulation factor IX (Homo sapiens, UniProt P00740)", 5.29),
    ("Cc1nn(C)c(CNC(C)C)c1NC(=O)OCC(Oc1cccc2sc(C(=N)N)cc12)c1ccccc1 (stereo not given)", "Coagulation factor IX (Homo sapiens, UniProt P00740)", 8.52),
]

// pKi (Coagulation factor IX (Homo sapiens, UniProt P00740)) for N=C(N)c1cc2c(O[C@@H](c3ccccc3)c3nc(-c4ccccc4)no3)cccc2s1 = 6.57

Let me check: N=C(N)c1cc2c(OC(COC(=O)Nc3ccc(F)cc3F)c3ccccc3)cccc2s1 (stereo not given) , system Coagulation factor IX (Homo sapiens, UniProt P00740), measured pKi is 8.15

pKi on Coagulation factor IX (Homo sapiens, UniProt P00740) for Cc1n[nH]c(C)c1NC(=O)OCC(Oc1cccc2sc(C(=N)N)cc12)c1ccccc1 (stereo not given) is 8.10

# lookup: N=C(N)c1cc2c(OC(COC(=O)Nc3ccccc3)c3ccccc3)cccc2s1 (stereo not given) on Coagulation factor IX (Homo sapiens, UniProt P00740), pKi = 8.00

Considering Cc1ccccc1NC(=O)OCC(Oc1cccc2sc(C(=N)N)cc12)c1ccccc1 (stereo not given) , its pKi with Coagulation factor IX (Homo sapiens, UniProt P00740) was recorded as 8.10

For COC(=O)Cn1nc(C)c(NC(=O)OCC(Oc2cccc3sc(C(=N)N)cc23)c2ccccc2)c1C (stereo not given) on Coagulation factor IX (Homo sapiens, UniProt P00740), measured pKi was 7.96
